Cited source for all entries: patent US20220112288A1

Molecular target: T1, human CD4 on cells (SKW3 cells; human PBMCs) (human, UniProt P01730 26-458)
T1 construct: whole, on cells; SKW3 CD4 knockout cells served as the negative cell line in the primary screen; also called hCD4; huCD4
Test: FACS binning on SKW3 cells; competitor OKT4a; background 5000, max binding 35000
property_label: OKT4a signal (anti-hu A647) with supernatant
Output spec: single numeric token, no unit.

QUERY: Requested read-out: OKT4a signal (anti-hu A647) with supernatant. Entry: 75110_08F20A (antibody, V domains shown, Tested as non-clonal AlivaMab Mouse Kappa hybridoma supernatant (detected with anti-mouse Fc gamma and anti-human kappa)) VH: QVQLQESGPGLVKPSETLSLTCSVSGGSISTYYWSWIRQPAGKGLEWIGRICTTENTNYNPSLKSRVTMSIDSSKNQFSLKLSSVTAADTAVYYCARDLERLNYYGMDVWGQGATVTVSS VL: DIQMTQSPSSLSASVGDRVTITCQASQDISKYLNWYQQKPGIAPKLLIYDASNLETGVPSRFSGSGSGTDFTFTISSLQPEDFATYYCQQYDSLPITFGQGTRLEIK
RESULT: 44800

QUERY: Same thing, different binder: 75110_07J02A (antibody, V domains shown, Tested as non-clonal AlivaMab Mouse Kappa hybridoma supernatant (detected with anti-mouse Fc gamma and anti-human kappa)) VH: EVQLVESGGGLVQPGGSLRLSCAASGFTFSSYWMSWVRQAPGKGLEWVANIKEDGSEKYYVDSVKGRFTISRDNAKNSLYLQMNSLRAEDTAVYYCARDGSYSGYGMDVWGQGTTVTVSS VL: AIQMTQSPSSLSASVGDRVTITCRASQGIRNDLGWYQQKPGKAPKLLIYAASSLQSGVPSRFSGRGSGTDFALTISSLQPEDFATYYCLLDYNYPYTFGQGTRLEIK
RESULT: 38000
